- systemName: Tyrosine-protein kinase Lyn (Homo sapiens) (UniProt P07948);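 also: kinase tested as its LYN B splice variant, values given as mean percent inhibition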
- Sequence (P07948 2-512 limits assumed): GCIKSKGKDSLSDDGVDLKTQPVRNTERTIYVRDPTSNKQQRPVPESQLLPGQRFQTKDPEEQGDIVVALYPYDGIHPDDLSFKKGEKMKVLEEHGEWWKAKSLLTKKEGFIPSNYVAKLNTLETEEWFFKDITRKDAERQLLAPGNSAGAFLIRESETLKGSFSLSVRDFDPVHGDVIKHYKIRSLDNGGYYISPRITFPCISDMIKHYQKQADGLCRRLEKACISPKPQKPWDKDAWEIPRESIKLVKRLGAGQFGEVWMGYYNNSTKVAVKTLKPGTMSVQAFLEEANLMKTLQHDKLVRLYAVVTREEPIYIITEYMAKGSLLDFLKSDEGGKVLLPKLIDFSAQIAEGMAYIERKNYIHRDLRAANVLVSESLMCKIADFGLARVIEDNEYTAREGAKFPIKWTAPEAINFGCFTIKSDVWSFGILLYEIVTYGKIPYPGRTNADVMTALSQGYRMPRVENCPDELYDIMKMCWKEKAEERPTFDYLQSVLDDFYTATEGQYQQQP
- setupConditions: at 1 µM
- Description: GSK_PKIS: LYN B (splice variant) mean inhibition at 1 uM [Nanosyn]
metricName: inhibition (%)
I only need the number, in %, no unit after it.

Suppose we examine the compound `NC(=O)c1cc(-c2ccncc2)cc(-c2ccccc2)c1N` ; what inhibition value has been reported? 43

I have this compound here, `NC(=O)Cc1ccccc1Oc1nccc(-c2c(-c3ccc(F)cc3)ncn2C2CCNCC2)n1` , and I need its recorded inhibition. 1.88

inhibition for `CCS(=O)(=O)c1ccc(OC)c(Nc2ncc(-c3cccc(-c4ccccc4F)c3)o2)c1` ? 55.8

# lookup: inhibition of `FC(F)(F)c1cccc(Nc2nccc(-c3cnn4nc(-c5ccccc5)ccc34)n2)c1` 2.95
